For each entry below, report its survival value.
Test system: DeltatarO mutant
protocolNotes: S. aureus survival, RN4220 and DeltatarO strains – OD600, teichoic acid synthesis inhibitors, primary screen (AID 463173)
studyConditions: S. aureus RN4220 wild type/DeltatarO growth, OD600, 18 h, active compounds read low, screened at 18.75 µg/mL (by protocol)
Among all 52,000 compounds or so, about 4,300 (8.3%) were called active. The entries come from a sample that favours actives as a whole.
Give bare numbers, in %.

> print(dat)
                                   molecule  reading
1  CCCN(C(=O)COc1cc(=O)n(CC)c2ccccc12)c1ccc(C(C)C)cc1      -22

Batch request: survival for each of the following molecules.
1. Cc1ccc2c(=O)c(C(=O)c3cccc(Cl)c3)cn(CC(=O)Nc3ccc4c(c3)OCCO4)c2n1
2. CCn1c(=O)cc(OCC(=O)NCc2ccccc2Cl)c2ccccc21

Output:
1: 80; 2: 40

###

System: DeltatarO mutant
protocolNotes: S. aureus survival, RN4220 and DeltatarO strains – OD600, teichoic acid synthesis inhibitors, primary screen (AID 463173)
studyConditions: S. aureus RN4220 wild type/DeltatarO growth, OD600, 18 h, active compounds read low, screened at 18.75 µg/mL (by protocol)
In all, about 52,000 compounds went through this assay and about 4,300 (8.3%) were called active. What follows is part of a selection rich in actives, with near analogues and random picks from the rest.
Exam item: assign criterion met to entries whose survival is below 50% and criterion not met to entries at or above 50%. Note that a value of exactly 50% receives criterion not met.

Reference set, count: 5
> print(dat)
                                   compound        answerlabel
1      CCCCN(CCCC)c1nc(-c2ccccc2)nc2ccccc12      criterion met
2       CCCN(CCC)c1nc(-c2ccccc2F)nc2ccccc12      criterion met
3  COc1ccc(-c2noc(-c3ccc(NC(C)c4ccccc4)c([N+](=O)[O-])c3)n2)cc1OC (stereo not given)  criterion not met
4  O=C1CN(C(=O)COc2ccc(Cl)cc2Cl)C(c2ccc(F)cc2)c2cc(F)ccc2N1 (stereo not given)      criterion met
5  CCCC(=O)N1CC(=O)Nc2ccc(Cl)cc2C1c1ccccc1 (stereo not given)  criterion not met

Task: Quick check: survival of O=C1CN(C(=O)COc2ccc(Cl)cc2Cl)C(c2ccccc2)c2cc(F)ccc2N1 (stereo not given) under 50%?
Output: criterion not met

Task: Quick check: survival of Cn1c(=O)n(C)c2cc(N3CCOCC3)c(NS(=O)(=O)c3ccc(C(C)(C)C)cc3)cc21 under 50%?
Output: criterion not met

Task: Quick check: survival of CCOc1ccc(C(=O)N2CC(=O)Nc3ccc(C)cc3C2c2ccc(F)cc2)cc1OCC (stereo not given) under 50%?
Output: criterion not met

Task: Quick check: survival of COc1ccc(NC(=O)Cn2c(=O)n(-c3ccc(C)c(C)c3)c(=O)c3c(C)c(C)sc32)cc1 under 50%?
Output: criterion not met

###

System: DeltatarO mutant
protocolNotes: S. aureus survival, RN4220 and DeltatarO strains – OD600, teichoic acid synthesis inhibitors, primary screen (AID 463173)
studyConditions: S. aureus RN4220 wild type/DeltatarO growth, OD600, 18 h, screened at 18.75 µg/mL (by protocol)
In all, about 52,000 compounds went through this assay and about 4,300 (8.3%) were called active. Rule as the data show it: active = survival mostly below about 52% (no sharp cut-off); inactive = mostly above about 56%. This is one part of a sample in which actives are shown more often than they occur.
Tick one outcome: active, inactive

> print(dat)
                                   molecule  answerlabel
1  CSc1ccc(C2c3c(oc4ccc(F)cc4c3=O)C(=O)N2c2ccc(C)cn2)cc1 (stereo not given)     inactive
2  CCOC(=O)c1ccc(N2CCN(c3cccc(Cl)c3)CC2)c(NC(=O)Nc2ccc(Cl)cc2)c1     inactive

Task: Given CC(C)S(=O)(=O)c1oc(-c2cccs2)nc1S(=O)(=O)c1ccc(F)cc1 , state the outcome it received in this test.
Output: active

Task: Given CS(=O)(=O)c1oc(-c2ccc(F)cc2)nc1S(=O)(=O)c1ccc(Cl)cc1 , state the outcome it received in this test.
Output: active

Task: Given CCN(CC)c1ncccc1C(=O)NCc1cccs1 , state the outcome it received in this test.
Output: inactive

Task: Given Cc1ccc(S(=O)(=O)c2nc(-c3ccc(F)cc3)oc2SCC(=O)NC2CCCCC2)cc1 , state the outcome it received in this test.
Output: inactive

Task: Given Cc1ccc(S(=O)(=O)c2nc(-c3cccs3)oc2SCc2ccc(F)cc2)cc1 , state the outcome it received in this test.
Output: inactive

Task: Given CCOC(=O)c1ccc(N2CCN(c3cccc(OC)c3)CC2)c(NC(=O)Nc2ccc(OCC)cc2)c1 , state the outcome it received in this test.
Output: active

Task: Given CCOC(=O)c1ccc(NC(=O)Nc2cc3c(cc2N2CCCC2)n(C)c(=O)n3C)cc1 , state the outcome it received in this test.
Output: inactive

Task: Given CCn1c(=O)n(CC)c2cc(N3CCCCC3)c(NC(=O)Nc3cc(C)cc(C)c3)cc21 , state the outcome it received in this test.
Output: inactive

###

Tested on: DeltatarO mutant
protocolNotes: S. aureus survival, RN4220 and DeltatarO strains – OD600, teichoic acid synthesis inhibitors, primary screen (AID 463173)
studyConditions: S. aureus RN4220 wild type/DeltatarO growth, OD600, 18 h, screened at 18.75 µg/mL (by protocol)
Screen size: about 52,000 compounds; about 4,300 (8.3%) were called active. Cut-off read from the data, not from the text of the source: active = survival mostly below about 52% (no sharp cut-off); inactive = mostly above about 56%. For the sample, actives were picked, then their nearest neighbours and some compounds at random.
Tick one outcome: true (active), false (inactive)

> print(dat)
                                   molecule  answerlabel
1  CC(C)c1ccc(S(=O)(=O)Nc2ccc(O)c(Sc3nc4ccccc4s3)c2)cc1         true
2  COc1cccc(CNC(=O)C2CCCN(S(=O)(=O)c3ccc4c(ccn4C)c3)C2)c1 (configuration not stated)        false
3  Cc1ccc(C(=O)N2CCc3cc(CNC(=O)COc4ccccc4)ccc32)cc1        false
4  Cc1cc(S(=O)(=O)Nc2ccc(O)c(Sc3nc4ccccc4s3)c2)ccc1Cl         true
5  CCC(=O)Nc1nnc(S(=O)(=O)N2c3ccccc3CC2C)s1 (configuration not stated)        false

Task: Given COc1ccc(CNC(=O)C2CCCCN2S(=O)(=O)c2ccc(F)cc2)cc1 (configuration not stated) , state the outcome it received in this test.
Output: false

Task: Given CC(C)CC(=O)Nc1nnc(S(=O)(=O)N2c3ccccc3CC2C)s1 (configuration not stated) , state the outcome it received in this test.
Output: false

###

Test system: DeltatarO mutant
protocolNotes: S. aureus survival, RN4220 and DeltatarO strains – OD600, teichoic acid synthesis inhibitors, primary screen (AID 463173)
studyConditions: S. aureus RN4220 wild type/DeltatarO growth, OD600, 18 h, active compounds read low, screened at 18.75 µg/mL (by protocol)
About 4,300 (8.3%) of roughly 52,000 compounds were called active. Shown is part of a subset that was picked to be rich in actives.
Class assignment keyed on survival, ranges group A: < 60%; group B: ≥ 60% and < 90%; group C: ≥ 90%

Reference set, count: 3
> print(dat)
                                   compound  answerlabel
1  CC1Cc2ccccc2N1S(=O)(=O)c1nnc(NC(=O)c2ccccc2)s1 (stereo unspecified)      group A
2  COC(=O)c1cc(NC(=O)[C@H](CCS(C)(=O)=O)N2Cc3ccccc3C2=O)cc(C(=O)OC)c1      group B
3  CC(C)c1ccc(NC(=O)c2cc(S(=O)(=O)NC3CCCCC3)ccc2F)cc1      group C

Task: Sort into band: O=C(Nc1ccc(F)cc1F)C(Cc1ccccc1)N1Cc2ccccc2C1=O (stereo unspecified)
Output: group A

Task: Sort into band: C#CCN1CCOCC1
Output: group C

###

Tested on: DeltatarO mutant
protocolNotes: S. aureus survival, RN4220 and DeltatarO strains – OD600, teichoic acid synthesis inhibitors, primary screen (AID 463173)
studyConditions: S. aureus RN4220 wild type/DeltatarO growth, OD600, 18 h, active compounds read low, screened at 18.75 µg/mL (by protocol)
About 4,300 (8.3%) of roughly 52,000 compounds were called active. The entries come from a sample that favours actives as a whole.
outcomeMeasure: survival (%)
One number for each entry, in %.

> print(dat)
                                   compound      targetsystem  outcomemeasure  reading
1    Cc1cc(C)nc(SCc2noc(-c3ccc(Cl)cc3)n2)n1  DeltatarO mutant        survival       97
2  CCOc1ccc(NS(=O)(=O)c2ccc3c4c(cccc24)C(=O)N3)cc1  DeltatarO mutant        survival       83
3  COc1ccc(CNC(=O)CC(c2ccc(OC)c(OC)c2)N2Cc3ccccc3C2=O)cc1 (stereo not given)  DeltatarO mutant        survival       87
4  Cc1nc2nc(NC(=O)C(C)C)[nH]n2c(=O)c1Cc1ccccc1  DeltatarO mutant        survival       98
5       O=C(O)c1cccc(N2C(=O)c3cccnc3C2=O)c1  DeltatarO mutant        survival       83
6  COc1cccc(C(=O)Nc2nc3nc(C)c(Cc4ccccc4)c(=O)n3[nH]2)c1  DeltatarO mutant        survival      104
7  Cc1ccc(CN2CCCn3nc(C(=O)NCCc4ccc(Cl)cc4)cc3C2=O)cc1  DeltatarO mutant        survival       71
8  Cc1nc2c(-c3ccccc3)c(C)[nH]n2c(=O)c1Cc1ccc(C(C)C)cc1  DeltatarO mutant        survival       11
9  Cc1nc2c(-c3ccccc3)c(C)[nH]n2c(=O)c1Cc1ccc(Br)cc1  DeltatarO mutant        survival        7

Next item in the queue.
Task: Tell us which survival value is on record for Cc1nc2nc(NC(=O)C(C)(C)C)[nH]n2c(=O)c1Cc1ccccc1
Output: 112
